Where do the numbers come from? From patent US10301272B2.

Experimental target: RORγ (Homo sapiens, UniProt P51449)
Sequence (P51449 whole entry, looked up, the tested form may be a part): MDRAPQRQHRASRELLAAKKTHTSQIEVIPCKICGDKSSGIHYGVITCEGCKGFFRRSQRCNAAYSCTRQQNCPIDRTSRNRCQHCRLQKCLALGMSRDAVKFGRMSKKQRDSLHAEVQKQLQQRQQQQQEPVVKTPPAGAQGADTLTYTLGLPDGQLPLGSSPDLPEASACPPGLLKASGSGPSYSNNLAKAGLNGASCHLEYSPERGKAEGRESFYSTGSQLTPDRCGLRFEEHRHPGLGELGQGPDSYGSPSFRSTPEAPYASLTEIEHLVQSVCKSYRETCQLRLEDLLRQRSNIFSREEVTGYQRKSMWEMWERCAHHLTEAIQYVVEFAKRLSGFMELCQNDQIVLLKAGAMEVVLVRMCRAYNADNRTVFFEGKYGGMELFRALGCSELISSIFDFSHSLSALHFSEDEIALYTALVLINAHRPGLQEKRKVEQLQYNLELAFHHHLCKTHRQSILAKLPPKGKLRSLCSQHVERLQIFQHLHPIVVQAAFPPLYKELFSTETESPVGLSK
Test protocol: RORγ Gal4 Reporter Gene Assay
Assay type: cell-based
Answer each item with its documented pIC50 (FF).

Q: Dear colleague, I am looking for the recorded pIC50 (FF) of the following compound: CC(C)(C)c1cc(-c2nc(C(N)=O)ncc2CC2CCCCC2)cc(C(C)(C)C)c1 [Example 206]
Result: 5.9/6.3/6.2

Q: Given the compound CC(C)(O)c1ccc(-c2sc(C(=O)NC3CCS(=O)(=O)CC3)nc2CC2CCCCC2)c2ccccc12 [7/23] , what is its reported pIC50 (FF)?
Result: <4.7/6.8/6.7

====

Experimental target: UniProtKB P51449
Test protocol: RORγ Gal4 Reporter Gene Assay
Format: cell-based
Experimental: Determination of a ligand mediated Gal4 promoter driven transactivation to quantify ligand binding to RORγ was performed as follows: DNA encoding three different RORγ protein fragments was cloned into vector pCMV-BD (Stratagene). Expression was under control of a CMV promoter and as fusion to the DNA-binding domain of the yeast protein GAL4. […]
For each record, write down the corresponding pIC50 (REN).

Q: Name the reported pIC50 (REN) value associated with the compound CNS(=O)(=O)c1ccc(-c2sc(C(=O)N3CC4(CCS(=O)(=O)CC4)C3)nc2CC2CCCCC2)c2ccccc12
Result: 6.3/6.6/6.6

Q: Record request: pIC50 (REN) value, item CC(C)(C)NS(=O)(=O)c1ccc(-c2oc(C(=O)NCC3(O)CCS(=O)(=O)CC3)nc2CC2CCCCC2)c2ccccc12
Result: 6.5/8.0/8.2

Q: Given the compound CC(C)(C)NS(=O)(=O)c1ccc(-c2oc(C(=O)NC34CCC(C(=O)NS(C)(=O)=O)(CC3)CC4)nc2CC2CCCCC2)c2ccccc12 , what is its reported pIC50 (REN)?
Result: 6.0/7.3/7.4

Q: For the compound CC(C)(O)CNC(=O)c1nc(CC2CCCCC2)c(-c2ccc(S(=O)(=O)NC(C)(C)C)c3c(F)cccc23)s1 , what pIC50 (REN) is on record?
Result: 7.0/7.7/7.8

Q: Reported pIC50 (REN), compound COC(c1nc(C(=O)NC2CCOCC2)sc1-c1ccc(S(=O)(=O)NC(C)(C)C)c(C(C)(C)C)c1)C1CCCCC1 (stereo not shown) : ____
Result: 6.1/6.7/6.7

====

Experimental target: RORγ (Homo sapiens, UniProt P51449)
Test protocol: RORγ Gal4 Reporter Gene Assay
Type: cell-based
Readout type: pIC50 (FF)

Q: Give the measured pIC50 (FF) of CC(C)(O)CNC(=O)c1nc(CC2CCCCC2)c(-c2ccc(S(=O)(=O)NC(C)(C)C)c(C(F)F)c2F)s1 [6/18] .
Result: 7.0/8.5/8.7

Q: Which pIC50 (FF) reading was recorded for the compound CC(C)(C)NS(=O)(=O)c1ccc(-c2sc(C(=O)NC34CCC(C(=O)O)(CC3)CC4)nc2CC2CCCCC2)c2ccccc12 [6/8] ?
Result: 6.3/8.2/8.2

Q: What measured pIC50 (FF) goes with CC(C)(C)NS(=O)(=O)c1ccc(-c2sc(C(=O)NC3CCC(C(=O)O)C3)nc2CC2CCCCC2)c2ccccc12 (stereo not shown) [6/51] ?
Result: 6.3/8.4/8.4

Q: Which value of pIC50 (FF) has been reported for CC(C)(O)CNC(=O)c1nc(CC2CCCCC2)c(-c2ccc(S(=O)(=O)NC(C)(C)C)c3ccccc23)o1 [100/7] in the records?
Result: 6.6/7.7/7.9

Q: Bench note: what pIC50 (FF) did CC(C)(C)NS(=O)(=O)c1ccc(-c2sc(C(=O)NC3CCS(=O)(=O)CC3)nc2Cc2ccccc2)c2ccccc12 [Example 300] show?
Result: 7.1/8.2/8.4

Q: Look up pIC50 (FF) for this compound: O=C(c1nc(CC2CCCCC2)c(-c2ccc(S(=O)(=O)NC3CS(=O)(=O)C3)c3ccccc23)s1)N1CC2(CCS(=O)(=O)CC2)C1 [14/3]
Result: 6.6/6.4/6.4
